B1: library; a variant is named by its letters at N, in order (parent)
chain: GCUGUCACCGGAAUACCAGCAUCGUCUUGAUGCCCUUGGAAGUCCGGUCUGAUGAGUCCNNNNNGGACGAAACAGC

- Variants of: B1
- test method notes: FACS-Seq fitted mean relative fluorescence mCherry/BFP with ligand (log10 relative fluorescence); ligand concentration (+) FACS-Seq: 1 mM; higher = higher reporter protein expression
- details: HEK293T, ligand present: yes
Would you mind telling me the reported FACS-Seq fitted mean (log10) of each entry?
One number for each entry.

These solved cases illustrate the format of a correct answer.
INSERT INTO assay_data (sequence, endpoint_value) VALUES
  ('GCUGUCACCGGAAUACCAGCAUCGUCUUGAUGCCCUUGGAAGUCCGGUCUGAUGAGUCCCGUAAGGACGAAACAGC [CGUAA]', 0.767),
  ('GCUGUCACCGGAAUACCAGCAUCGUCUUGAUGCCCUUGGAAGUCCGGUCUGAUGAGUCCAUCACGGACGAAACAGC [AUCAC]', 0.786),
  ('GCUGUCACCGGAAUACCAGCAUCGUCUUGAUGCCCUUGGAAGUCCGGUCUGAUGAGUCCAGGGCGGACGAAACAGC [AGGGC]', 0.756),
  ('GCUGUCACCGGAAUACCAGCAUCGUCUUGAUGCCCUUGGAAGUCCGGUCUGAUGAGUCCUACGUGGACGAAACAGC [UACGU]', 0.816);

Kindly give each listed record's FACS-Seq fitted mean (log10).
1. GCUGUCACCGGAAUACCAGCAUCGUCUUGAUGCCCUUGGAAGUCCGGUCUGAUGAGUCCUUCUCGGACGAAACAGC [UUCUC]
2. GCUGUCACCGGAAUACCAGCAUCGUCUUGAUGCCCUUGGAAGUCCGGUCUGAUGAGUCCCCAAAGGACGAAACAGC [CCAAA]
3. GCUGUCACCGGAAUACCAGCAUCGUCUUGAUGCCCUUGGAAGUCCGGUCUGAUGAGUCCUCUGCGGACGAAACAGC [UCUGC]
4. GCUGUCACCGGAAUACCAGCAUCGUCUUGAUGCCCUUGGAAGUCCGGUCUGAUGAGUCCCGAUUGGACGAAACAGC [CGAUU]

[1.15, 0.619, 0.642, 0.579]

Kindly give each listed record's FACS-Seq fitted mean (log10).
1. GCUGUCACCGGAAUACCAGCAUCGUCUUGAUGCCCUUGGAAGUCCGGUCUGAUGAGUCCACAGAGGACGAAACAGC [ACAGA]
2. GCUGUCACCGGAAUACCAGCAUCGUCUUGAUGCCCUUGGAAGUCCGGUCUGAUGAGUCCAAUCCGGACGAAACAGC [AAUCC]
3. GCUGUCACCGGAAUACCAGCAUCGUCUUGAUGCCCUUGGAAGUCCGGUCUGAUGAGUCCUUUGUGGACGAAACAGC [UUUGU]
4. GCUGUCACCGGAAUACCAGCAUCGUCUUGAUGCCCUUGGAAGUCCGGUCUGAUGAGUCCCACAAGGACGAAACAGC [CACAA]
5. GCUGUCACCGGAAUACCAGCAUCGUCUUGAUGCCCUUGGAAGUCCGGUCUGAUGAGUCCCAAUCGGACGAAACAGC [CAAUC]
6. GCUGUCACCGGAAUACCAGCAUCGUCUUGAUGCCCUUGGAAGUCCGGUCUGAUGAGUCCUUGACGGACGAAACAGC [UUGAC]
7. GCUGUCACCGGAAUACCAGCAUCGUCUUGAUGCCCUUGGAAGUCCGGUCUGAUGAGUCCCUGCUGGACGAAACAGC [CUGCU]

1: 0.638; 2: 0.808; 3: 0.862; 4: 0.319; 5: 0.825; 6: 0.849; 7: 0.658

Kindly give each listed record's FACS-Seq fitted mean (log10).
1. GCUGUCACCGGAAUACCAGCAUCGUCUUGAUGCCCUUGGAAGUCCGGUCUGAUGAGUCCCACACGGACGAAACAGC [CACAC]
2. GCUGUCACCGGAAUACCAGCAUCGUCUUGAUGCCCUUGGAAGUCCGGUCUGAUGAGUCCGAGUUGGACGAAACAGC [GAGUU]

1.03
0.742
